Measured Response values are reported for all entries that follow.
targetUnderTest: T1, biotinylated recombinant human IL-12Rβ2 (human, UniProt Q99665 24-622, random biotinylated)
T1 construct: Recombinant protein produced in-house, biotinylated; also called hIL-12RB2; human IL-12RB2
T1 sequence: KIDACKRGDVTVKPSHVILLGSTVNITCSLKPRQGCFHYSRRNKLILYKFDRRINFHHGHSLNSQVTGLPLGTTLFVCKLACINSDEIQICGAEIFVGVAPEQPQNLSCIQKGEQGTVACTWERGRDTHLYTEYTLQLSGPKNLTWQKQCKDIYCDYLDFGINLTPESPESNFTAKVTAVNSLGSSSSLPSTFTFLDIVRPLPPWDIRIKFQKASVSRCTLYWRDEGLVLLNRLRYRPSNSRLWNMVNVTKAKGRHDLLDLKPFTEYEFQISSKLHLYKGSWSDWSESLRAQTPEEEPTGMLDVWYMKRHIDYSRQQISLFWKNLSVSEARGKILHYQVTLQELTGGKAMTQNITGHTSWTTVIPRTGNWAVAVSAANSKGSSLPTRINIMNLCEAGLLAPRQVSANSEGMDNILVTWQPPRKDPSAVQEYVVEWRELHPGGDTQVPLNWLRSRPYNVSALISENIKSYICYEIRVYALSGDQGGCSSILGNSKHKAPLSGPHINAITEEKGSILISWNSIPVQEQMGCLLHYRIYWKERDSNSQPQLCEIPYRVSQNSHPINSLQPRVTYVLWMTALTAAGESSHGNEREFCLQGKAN
protocolDetails: BLI (Octet), periplasmic extract on biotinylated hIL-12Rβ2 on streptavidin tips
Respond with the number and no other words.

Could you share which Response value was measured for anti-IL-12Rβ2 VHH clone 21064 (VHH, not shown: small tags and cut ends, tested as periplasmic extract; also called 3CRHM200) VHH: QVQLQESGGGLVQPGGSLRLSCAASGRTFSNYAMAWFRQAPGTEREFVAGLSGSGGDTAFYDNSVMGRFTISRDSAKNTMWLQINNLKPEDTAVYYCAAATHVVVSYGLVRRRGTYDYWGQGTQVTVSS ?
1.38

Could you share which Response value was measured for anti-IL-12Rβ2 VHH clone 21061 (VHH, not shown: small tags and cut ends, tested as periplasmic extract; also called 3CRHM85) VHH: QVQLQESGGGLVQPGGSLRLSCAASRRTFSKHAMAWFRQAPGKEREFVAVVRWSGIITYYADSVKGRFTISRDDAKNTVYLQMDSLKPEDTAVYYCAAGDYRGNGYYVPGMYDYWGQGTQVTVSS ?
1.32

Could you share which Response value was measured for anti-IL-12Rβ2 VHH clone 21054 (VHH, not shown: small tags and cut ends, tested as periplasmic extract; also called 3CRHM18) VHH: QVQLQESGGGLVQDGGSLRLSCAASGRTFSNYAMAWFRQAPGTEREFVAGLSGSGGDTAFYDNSVMGRFTISRDSAKNTMWLQINNLKPEDTAVYYCAAATHVVVSYGLVRKRGTYDYWGQGTQVTVSS ?
1.14

Could you share which Response value was measured for anti-IL-12Rβ2 VHH clone 20408 (VHH, not shown: small tags and cut ends, tested as periplasmic extract; also called 3CAHS172) VHH: QVQLQESGGGSVQAGGSLRLSCGASGFTFSSFGMHWFRQAPGKGQEWVATISSSGGTTYYSDSVKGRFTISRDNAKNTLYLQMNSLKPEDTALYYCARDVTGAVRGQGTQVTVSS ?
0.388
